Recorded pIC50 values for a group of compounds are listed next.
target: Human recombinant HDAC4 (Homo sapiens (Human), UniProt P56524); assay: Test 2: HDAC4 assay (fluorogenic substrate, 5 μM acetyl-Gly-Ala-Lys(ε-trifluoroacetyl)-AMC); type: biochemical; conditions: Test 2 (values without asterisk)
Sequence (P56524 2-1084): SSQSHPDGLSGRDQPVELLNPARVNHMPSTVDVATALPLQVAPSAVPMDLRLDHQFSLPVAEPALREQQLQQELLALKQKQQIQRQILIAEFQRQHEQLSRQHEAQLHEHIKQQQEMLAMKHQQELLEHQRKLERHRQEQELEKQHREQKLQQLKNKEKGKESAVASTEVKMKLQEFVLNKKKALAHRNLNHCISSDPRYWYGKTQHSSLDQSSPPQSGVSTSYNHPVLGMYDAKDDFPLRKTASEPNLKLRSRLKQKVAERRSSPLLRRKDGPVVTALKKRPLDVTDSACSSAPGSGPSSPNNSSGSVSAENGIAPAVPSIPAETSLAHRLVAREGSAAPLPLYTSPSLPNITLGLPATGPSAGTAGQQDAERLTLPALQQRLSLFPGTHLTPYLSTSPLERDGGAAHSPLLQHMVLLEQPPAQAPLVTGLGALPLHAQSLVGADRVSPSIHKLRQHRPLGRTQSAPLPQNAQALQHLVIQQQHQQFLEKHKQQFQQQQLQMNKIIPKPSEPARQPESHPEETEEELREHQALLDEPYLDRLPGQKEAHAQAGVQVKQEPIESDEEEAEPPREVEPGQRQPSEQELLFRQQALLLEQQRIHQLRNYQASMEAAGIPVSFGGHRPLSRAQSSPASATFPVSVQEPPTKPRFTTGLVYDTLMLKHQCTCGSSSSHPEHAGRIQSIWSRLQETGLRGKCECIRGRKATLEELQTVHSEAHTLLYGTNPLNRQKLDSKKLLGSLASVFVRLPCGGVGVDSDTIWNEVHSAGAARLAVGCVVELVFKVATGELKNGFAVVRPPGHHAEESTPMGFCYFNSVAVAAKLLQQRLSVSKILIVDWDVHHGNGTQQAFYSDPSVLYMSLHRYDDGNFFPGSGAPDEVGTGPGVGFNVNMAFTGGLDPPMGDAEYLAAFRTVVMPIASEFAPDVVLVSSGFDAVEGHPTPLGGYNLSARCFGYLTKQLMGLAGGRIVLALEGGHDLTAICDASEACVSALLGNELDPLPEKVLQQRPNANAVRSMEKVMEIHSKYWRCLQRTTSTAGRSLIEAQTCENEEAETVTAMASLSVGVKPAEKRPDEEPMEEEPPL
Lab note: report pIC50 as minus log10 of the concentration in molar units, number only.

Inquiry: Could you tell me which pIC50 is on file for CN(C)C[C@@H](Cc1ccccc1)NC(=O)c1ccc(-c2noc(C(F)(F)F)n2)cc1 ?
Reply text: 7.07

Inquiry: Need pIC50 of CC(C)N(C)C[C@@H](C)NC(=O)c1ccc(-c2noc(C(F)(F)F)n2)cc1F , thanks.
Reply text: 8.14

Inquiry: # input compound: CC(C)[C@@H](CN(C)C)NC(=O)c1ccc(-c2noc(C(F)(F)F)n2)cc1 ; wanted: its pIC50
Reply text: 7.82

Inquiry: Item under review: CC(C)[C@H](CN(C)C)NC(=O)c1ccc(-c2noc(C(F)(F)F)n2)cc1F . Reported pIC50?
Reply text: 7.35

Inquiry: # query: pIC50 of entry O=C(c1ccc(-c2noc(C(F)(F)F)n2)cc1)N1CCC(O)C1 (stereo not drawn)
Reply text: 5.70

====

Below, each entry is listed with its recorded pIC50.
target: Human recombinant full length HDAC1 (Homo sapiens (Human), UniProt Q13547); assay: Test 3: HDAC1 assay; details: substrate 5 μM acetyl-Gly-Ala-Lys(acetyl)-AMC
Sequence (Q13547 whole entry): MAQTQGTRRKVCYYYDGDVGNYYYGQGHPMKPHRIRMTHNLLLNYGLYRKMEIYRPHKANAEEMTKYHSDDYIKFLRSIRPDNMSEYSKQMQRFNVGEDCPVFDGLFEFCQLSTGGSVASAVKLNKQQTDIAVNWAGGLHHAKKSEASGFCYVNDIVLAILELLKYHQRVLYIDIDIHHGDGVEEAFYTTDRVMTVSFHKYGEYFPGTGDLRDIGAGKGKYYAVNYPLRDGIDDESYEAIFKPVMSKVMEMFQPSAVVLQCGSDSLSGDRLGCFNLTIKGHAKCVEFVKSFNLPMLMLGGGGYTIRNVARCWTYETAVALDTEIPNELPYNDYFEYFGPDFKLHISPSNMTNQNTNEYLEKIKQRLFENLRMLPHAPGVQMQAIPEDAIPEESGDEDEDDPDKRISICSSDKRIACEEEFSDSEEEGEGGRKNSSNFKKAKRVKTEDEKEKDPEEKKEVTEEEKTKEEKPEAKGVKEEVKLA
pIC50: −log10 of the molar value.

* CCCCNC(=O)Cc1ccc(-c2noc(C(F)(F)F)n2)cc1 [Example 6] | < 5.00
* C[C@H](CN(C)Cc1ccccc1)NC(=O)c1ccc(-c2noc(C(F)(F)F)n2)cc1 [Example 156] | 5.54

Inquiry: # get_value(readout='pIC50', item= COc1cc(NC(=O)c2ccc(-c3noc(C(F)(F)F)n3)cc2)ccn1 [Example 67] )
Reply text: < 5.00

Inquiry: Returns the measured pIC50 for the input compound. Input: CC(C)CC(CO)NC(=O)c1ccc(-c2noc(C(F)(F)F)n2)cc1 (stereo not drawn) [Example 58]
Reply text: < 5.00

Inquiry: Look up pIC50: CN(C)C(=O)CNC(=O)c1ccc(-c2noc(C(F)(F)F)n2)cc1 [Example 52]
Reply text: < 5.00

Inquiry: For the compound O=C(Nc1ccnc(C(F)(F)F)c1)c1ccc(-c2noc(C(F)(F)F)n2)cc1 [Example 74] , what pIC50 is on record?
Reply text: < 5.00

Inquiry: Which value of pIC50 has been reported for CCN(CC)C[C@@H](C)NC(=O)c1ccc(-c2noc(C(F)(F)F)n2)cc1F [Example 126] in the records?
Reply text: < 5.00

Inquiry: Query: pIC50; subject: CN(C)C[C@@H](Cc1ccccc1)NC(=O)c1ccc(-c2noc(C(F)(F)F)n2)cc1 [Example 92]
Reply text: < 5.17

Inquiry: Any idea what pIC50 was measured for CCN(C[C@@H](C)NC(=O)c1ccc(-c2noc(C(F)(F)F)n2)cc1F)C(C)C [Example 152] ?
Reply text: < 5.00

====

Target: Human recombinant HDAC4 (Homo sapiens (Human))
Assay: Test 2: HDAC4 assay (fluorogenic substrate, 5 μM acetyl-Gly-Ala-Lys(ε-trifluoroacetyl)-AMC)
Assay type: biochemical
Settings: Test 2 (values without asterisk)
Procedure: Test 2: HDAC4 Assay Description Control wells with HDAC4 only (positive control) and without HDAC4 (negative control) were included on the microplate. Bovine trypsin (4.5 μl of a 300 nM solution) was added and the plate incubated for additional 15 minutes at room temperature. The plate was placed in a fluorescence microplate reader, and read at an excitation wavelength of 360 nm and an emission wavelength of 450 nm with a 10 nm bandpath. […]
pIC50: −log10 of the molar value.
Returns one of met or not met; met when pIC50 is >= 6.

- CN(C)CCNS(=O)(=O)c1ccc(-c2noc(C(F)(F)F)n2)cc1: met

Inquiry: Does pIC50 meet or surpass 6 for C[C@H](CO)NC(=O)c1ccc(-c2noc(C(F)(F)F)n2)cc1 ?
Reply text: met

Inquiry: API: above_or_equal(metric=pIC50, cutoff=6) for item CN(C)C(=O)CNC(=O)c1ccc(-c2noc(C(F)(F)F)n2)cc1
Reply text: not met

Inquiry: Please tell me: is the compound O=C(NC1CCOCC1)c1ccc(-c2noc(C(F)(F)F)n2)cc1 at or over 6 in terms of pIC50?
Reply text: met

Inquiry: # bool: pIC50 of CNCCNC(=O)c1ccc(-c2noc(C(F)(F)F)n2)cc1 >= 6
Reply text: met

These measurements were taken from patent US9056843B2.
